Recorded values, source ChEMBL document CHEMBL4033638.

target: Signal transducer and activator of transcription 3 (Homo sapiens); assay: Inhibition of IFNgamma-stimulated STAT3 (unknown origin) activation expressed in human HeLa cells at 50 uM after 6 hrs by luciferase reporter gene assay relative to control; format: cell-based
value type: inhibition (%)

Recorded inhibition, per entry:
>>> result_number("Cc1cc2c(C(C)C)ccc(C)c2cc1O")
3.5
>>> result_number("Cc1cc2c(C(C)C)ccc(C)c2cc1OC(=O)c1cccc(C(F)(F)F)c1")
2.7
>>> result_number("CC1=CC[C@H](C(C)C)[C@H]2C=C(C(=O)O)CC=C12")
3.6
>>> result_number("Cc1ccc2c(c1)C(=O)C(C(C)C)=C[C@@]2(C)O")
2.4
>>> result_number("Cc1cc2c(C(C)C)ccc(C)c2cc1OC(=O)Nc1ccccc1")
3
>>> result_number("CC1=CC[C@H](C(C)C)c2cc(C)c(OC(=O)c3ccc(C(F)(F)F)cc3)cc21")
2.5
>>> result_number("CC1=CC[C@H](C(C)C)c2cc(C)c(OC(=O)c3cccc(Cl)c3)cc21")
1.5
>>> result_number("CC1=CC[C@H](C(C)C)c2cc(C)c(OC(=O)Nc3ccccc3)cc21")
3.3

A: CC1=CC[C@H](C(C)C)c2cc(C)c(OC(=O)c3ccc([N+](=O)[O-])cc3)cc21
B: COc1cccc(C(=O)Oc2cc3c(cc2C)[C@@H](C(C)C)CC=C3C)c1
C: COc1cccc(C(=O)Oc2cc3c(C)ccc(C(C)C)c3cc2C)c1
D: Cc1cc2c(C(C)C)ccc(C)c2cc1OC(=O)c1ccccc1
Sort the molecules on inhibition; start with the lowest figure. Please reply with the labels ordered as requested. Many thanks. D, C, A, B

###

molecular target: Nuclear factor erythroid 2-related factor 2 (Homo sapiens) (UniProt Q16236); test: Activation of Nrf2 in human HaCaT-ARE-Luc cells at 50 uM after 6 hrs by luciferase reporter gene assay relative to control; format: cell-based
Sequence (Q16236 whole entry): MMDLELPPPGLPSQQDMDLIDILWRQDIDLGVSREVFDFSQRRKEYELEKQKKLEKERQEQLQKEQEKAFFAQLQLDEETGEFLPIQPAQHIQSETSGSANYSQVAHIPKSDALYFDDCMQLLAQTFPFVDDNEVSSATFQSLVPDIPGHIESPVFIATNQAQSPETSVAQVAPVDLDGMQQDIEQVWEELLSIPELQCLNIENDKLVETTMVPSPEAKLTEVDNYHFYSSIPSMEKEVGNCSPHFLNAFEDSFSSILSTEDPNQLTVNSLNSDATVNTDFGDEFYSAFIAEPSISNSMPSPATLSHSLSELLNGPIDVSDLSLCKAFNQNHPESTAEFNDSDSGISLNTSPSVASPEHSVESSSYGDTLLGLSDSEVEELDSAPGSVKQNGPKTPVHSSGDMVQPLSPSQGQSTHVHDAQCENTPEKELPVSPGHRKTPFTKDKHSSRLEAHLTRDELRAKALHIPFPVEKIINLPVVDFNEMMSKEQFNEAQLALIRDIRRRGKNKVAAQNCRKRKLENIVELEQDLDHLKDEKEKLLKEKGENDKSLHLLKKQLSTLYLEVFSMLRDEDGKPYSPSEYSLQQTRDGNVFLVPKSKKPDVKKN
value type: fold change (FC)

>>> result_number("CC1=CC[C@H](C(C)C)c2cc(C)c(OC(=O)c3cccc(C(F)(F)F)c3)cc21")
1.9
>>> result_number("CC1=CC[C@H](C(C)C)c2cc(C)c(OC(=O)c3cccc(C)c3)cc21")
1.7
>>> result_number("CC1=CC[C@H](C(C)C)c2cc(C)c(OC(=O)c3cccc(Cl)c3)cc21")
1.4
>>> result_number("Cc1cc2c(C(C)C)ccc(C)c2cc1OC(=O)c1cccc(C(F)(F)F)c1")
1.9
>>> result_number("CC1=CC[C@H](C(C)C)c2cc(C)c(OC(=O)c3ccc(C(F)(F)F)cc3)cc21")
1.6
>>> result_number("Cc1cc2c(C(C)C)ccc(C)c2cc1O")
1.7
>>> result_number("Cc1cc2c(C(C)C)ccc(C)c2cc1OC(=O)c1ccccc1")
1.9
>>> result_number("CC1=C[C@](O)(C(C)C)C(=O)c2cc(C)c(O)cc21")
1.3
>>> result_number("COc1ccc(C(=O)Oc2cc3c(cc2C)[C@@H](C(C)C)CC=C3C)cc1")
1.9
>>> result_number("CC1=CC[C@H](C(C)C)c2cc(C)c(O)cc21")
3.1
>>> result_number("CC1=CC[C@H](C(C)C)c2cc(C(=O)O)ccc21")
1.8

###

target: UniProtKB P40763; test: Inhibition of IFNgamma-stimulated STAT3 (unknown origin) activation expressed in human HeLa cells at 50 uM after 6 hrs by luciferase reporter gene assay relative to control; assay type: cell-based
Sequence (P40763 whole entry): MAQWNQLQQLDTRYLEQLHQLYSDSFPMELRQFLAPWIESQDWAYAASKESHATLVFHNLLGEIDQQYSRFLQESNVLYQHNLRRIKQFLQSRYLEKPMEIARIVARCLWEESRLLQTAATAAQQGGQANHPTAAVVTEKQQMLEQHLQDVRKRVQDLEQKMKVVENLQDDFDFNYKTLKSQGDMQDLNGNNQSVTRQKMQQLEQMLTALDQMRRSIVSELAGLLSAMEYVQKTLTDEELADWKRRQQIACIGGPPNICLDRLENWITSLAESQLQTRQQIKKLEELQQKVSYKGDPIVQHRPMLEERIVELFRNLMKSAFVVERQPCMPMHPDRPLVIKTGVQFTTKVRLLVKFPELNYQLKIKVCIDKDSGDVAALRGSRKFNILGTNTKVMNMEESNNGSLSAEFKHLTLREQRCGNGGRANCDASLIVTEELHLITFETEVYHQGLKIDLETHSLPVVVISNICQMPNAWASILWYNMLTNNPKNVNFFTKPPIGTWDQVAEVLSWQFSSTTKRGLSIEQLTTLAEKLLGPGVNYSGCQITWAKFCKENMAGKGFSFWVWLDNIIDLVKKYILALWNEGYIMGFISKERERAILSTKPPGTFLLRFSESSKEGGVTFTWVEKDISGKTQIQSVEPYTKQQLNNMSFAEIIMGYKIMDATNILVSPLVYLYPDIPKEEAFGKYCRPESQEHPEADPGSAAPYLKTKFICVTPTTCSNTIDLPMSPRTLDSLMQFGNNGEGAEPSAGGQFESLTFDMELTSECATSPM
value type: inhibition (%)

Recorded inhibition, per entry:
>>> result_number("CC1=CC[C@H](C(C)C)c2cc(C)c(OC(=O)c3ccc(C)cc3)cc21")
3.1
>>> result_number("CC1=CC[C@H](C(C)C)c2cc(C)c(OC(=O)c3cccc(C(F)(F)F)c3)cc21")
1.7

1: Cc1ccc(C(=O)Oc2cc3c(C)ccc(C(C)C)c3cc2C)cc1
2: COc1c(C(C)C)cc(C)c2ccc(C)cc12
Select one. Lower inhibition: 1 or 2 Please indicate the selected item by its label. 2

I: COc1ccc(C(=O)Oc2cc3c(cc2C)[C@@H](C(C)C)CC=C3C)cc1
II: CC1=C2CCC(C(=O)O)=C[C@@H]2[C@@H](C(C)C)CC1
Select one. Lower inhibition: I or II Please indicate the selected item by its label. I

a: Cc1cccc(C(=O)Oc2cc3c(C)ccc(C(C)C)c3cc2C)c1
b: Cc1cc2c(C(C)C)ccc(C=O)c2cc1O
Select one. Lower inhibition: a or b Please indicate the selected item by its label. a
